Below: a set of entries, each annotated with reported Kd.
Target: purified EED (Example 6) (UniProt O75530 1-441)
Sequence (O75530 whole entry): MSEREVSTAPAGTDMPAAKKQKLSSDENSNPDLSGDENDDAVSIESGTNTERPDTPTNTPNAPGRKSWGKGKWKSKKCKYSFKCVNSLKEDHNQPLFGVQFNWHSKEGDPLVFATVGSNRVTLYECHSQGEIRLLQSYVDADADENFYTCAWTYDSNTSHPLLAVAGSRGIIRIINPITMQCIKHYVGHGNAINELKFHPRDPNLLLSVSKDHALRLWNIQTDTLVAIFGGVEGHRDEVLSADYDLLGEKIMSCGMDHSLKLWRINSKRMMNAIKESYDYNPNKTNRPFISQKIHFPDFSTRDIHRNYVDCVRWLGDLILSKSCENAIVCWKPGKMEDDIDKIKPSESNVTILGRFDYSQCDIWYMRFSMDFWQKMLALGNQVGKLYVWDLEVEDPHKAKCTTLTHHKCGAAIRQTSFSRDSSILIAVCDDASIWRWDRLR
Test: competitive fluorescence polarization; competition against FITC-EZH2(42-68)
Bridges are numbered along the chain shown (N, C = ends). Where no end group is shown, it is not given here. [ ]: non-standard residue; d: D form. S5 = C=CCCC[C@](C)(N)C(=O)O
endpoint_label: Kd (nM)

>>> quantitative_readout("Ac-FSSNR[S5]KIL[S5]RTQILNQEWKQRRIQPV (staple 6-10) [acetyl-SAH-EZH2]")
1130
>>> quantitative_readout("Ac-FSSNR[S5]KIL[S5]RT[S5]ILN[S5]EWKQRRIQPV (staple 6-10, 13-17) [acetyl-SAH-EZH2(42-68)AC]")
650
